Target: CDC7/DBF4 (Cell division cycle 7-related protein kinase/Activator of S phase kinase) (Homo sapiens)
Experiment: Inhibition of Cdc7/Dbf4 (unknown origin) using 0.025 uM of ATP as substrate by AlphaScreen assay
Assay type: protein-complex assay
VALUE TYPE: IC50

Quick one: give measured IC50 for NC(=O)c1sc(-c2ccnc(N)n2)nc1-c1ccc(Cl)cc1Cl 40 nM

----------
Biological target: CDC7/DBF4 (Cell division cycle 7-related protein kinase/Activator of S phase kinase) (Homo sapiens)
Assay: Inhibition of Cdc7/Dbf4 (unknown origin) using 0.375 uM of ATP as substrate by AlphaScreen assay
Type: protein-complex assay
VALUE TYPE: IC50 (nM)
// return numeric value only (unit: nM, not printed)

Read the entry CCOC(=O)c1sc(-c2ccncc2)nc1O and write its reported IC50. 546

----------
Molecular target: CDC7/DBF4 (Cell division cycle 7-related protein kinase/Activator of S phase kinase) (Homo sapiens)
Assay: Inhibition of Cdc7/Dbf4 (unknown origin) using 0.222 uM of ATP as substrate by AlphaScreen assay
Type: protein-complex assay
VALUE TYPE: IC50 (nM)
Give the number; nM is assumed, so skip it.

Supply measured IC50 of NC(=O)c1sc(-c2ccnc(N)n2)nc1-c1ccc(Cl)cc1Cl in your reply. 35

----------
Molecular target: CDC7/DBF4 (Cell division cycle 7-related protein kinase/Activator of S phase kinase) (Homo sapiens)
Test: Inhibition of Cdc7/Dbf4 (unknown origin) using 0.333 uM of ATP as substrate by AlphaScreen assay
Format: protein-complex assay
VALUE TYPE: IC50 (nM)
Value expressed in nM; do not type the unit.

Annotate the compound NC(=O)c1sc(-c2ccnc(N)n2)nc1-c1ccc(Cl)cc1Cl with its measured IC50. 20

----------
Target: Casein kinase I isoform delta (Homo sapiens)
Sequence (P48730 whole entry, canonical isoform): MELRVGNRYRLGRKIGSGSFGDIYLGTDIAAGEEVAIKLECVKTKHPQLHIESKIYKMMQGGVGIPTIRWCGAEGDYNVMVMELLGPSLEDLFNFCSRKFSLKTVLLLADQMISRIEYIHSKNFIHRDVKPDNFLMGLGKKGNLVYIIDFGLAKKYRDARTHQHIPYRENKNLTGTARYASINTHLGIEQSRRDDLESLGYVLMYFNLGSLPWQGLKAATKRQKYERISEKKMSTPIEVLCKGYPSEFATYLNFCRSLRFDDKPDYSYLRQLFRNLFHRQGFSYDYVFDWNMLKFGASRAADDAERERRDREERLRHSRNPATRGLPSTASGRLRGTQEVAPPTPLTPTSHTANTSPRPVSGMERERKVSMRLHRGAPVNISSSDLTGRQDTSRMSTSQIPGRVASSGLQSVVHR
Test: Inhibition of CK1delta (unknown origin) by TR-FRET assay
VALUE TYPE: pIC50
Scale for pIC50: -log10 of concentration given in mol/L; no unit attached.

Return pIC50 (reported value) for this compound: NC(=O)c1sc(-c2ccnc(N)n2)nc1-c1ccc(Cl)cc1Cl 7.08

Please report pIC50 for the following compound: COc1ccc(-c2nc(-c3ccnc(N)n3)sc2C(N)=O)c(Cl)c1 6.98

----------
Experiment: Fraction unbound in mouse plasma
Format: ADME, cell-free
VALUE TYPE: fraction unbound
Answer field: number only, no words.

Look up fraction unbound of NC(=O)c1sc(-c2ccnc(N)n2)nc1-c1ccc(Cl)cc1Cl and report it. 0.09

----------
Biological target: CDC7/DBF4 (Cell division cycle 7-related protein kinase/Activator of S phase kinase) (Homo sapiens, UniProt O00311)
Sequence (Q9UBU7 whole entry): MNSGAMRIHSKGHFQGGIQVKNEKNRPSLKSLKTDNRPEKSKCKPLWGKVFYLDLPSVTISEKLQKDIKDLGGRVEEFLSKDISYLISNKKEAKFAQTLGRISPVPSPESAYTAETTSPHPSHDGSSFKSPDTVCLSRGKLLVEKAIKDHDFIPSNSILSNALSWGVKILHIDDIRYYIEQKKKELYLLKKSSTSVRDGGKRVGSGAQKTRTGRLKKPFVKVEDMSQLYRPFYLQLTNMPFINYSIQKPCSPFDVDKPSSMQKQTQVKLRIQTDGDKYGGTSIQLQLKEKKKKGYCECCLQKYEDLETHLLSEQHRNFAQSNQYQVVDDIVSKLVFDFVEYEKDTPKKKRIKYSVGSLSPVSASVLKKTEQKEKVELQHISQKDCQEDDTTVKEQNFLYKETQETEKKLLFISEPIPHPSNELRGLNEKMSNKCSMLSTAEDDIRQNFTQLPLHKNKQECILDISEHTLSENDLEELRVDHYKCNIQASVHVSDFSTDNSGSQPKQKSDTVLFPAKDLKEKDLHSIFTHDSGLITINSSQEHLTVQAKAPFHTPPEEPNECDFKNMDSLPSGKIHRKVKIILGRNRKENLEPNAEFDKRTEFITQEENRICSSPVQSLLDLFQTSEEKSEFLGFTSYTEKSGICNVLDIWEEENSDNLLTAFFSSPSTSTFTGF
Sequence (O00311 whole entry): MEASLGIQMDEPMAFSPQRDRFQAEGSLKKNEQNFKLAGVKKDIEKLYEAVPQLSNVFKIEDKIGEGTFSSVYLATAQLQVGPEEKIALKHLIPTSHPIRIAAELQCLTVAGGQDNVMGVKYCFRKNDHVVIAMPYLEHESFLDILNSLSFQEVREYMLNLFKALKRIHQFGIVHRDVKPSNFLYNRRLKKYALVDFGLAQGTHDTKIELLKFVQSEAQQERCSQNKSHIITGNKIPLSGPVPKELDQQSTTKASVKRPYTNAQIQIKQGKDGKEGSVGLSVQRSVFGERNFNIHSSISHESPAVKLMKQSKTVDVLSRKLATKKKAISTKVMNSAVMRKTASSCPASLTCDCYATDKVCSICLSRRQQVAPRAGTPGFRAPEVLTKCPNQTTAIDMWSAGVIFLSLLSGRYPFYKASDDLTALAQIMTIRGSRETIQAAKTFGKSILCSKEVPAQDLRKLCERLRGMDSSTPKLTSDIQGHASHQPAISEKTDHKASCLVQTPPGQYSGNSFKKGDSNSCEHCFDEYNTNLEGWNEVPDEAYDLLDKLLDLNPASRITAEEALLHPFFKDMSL
Assay: Inhibition of Cdc7/Dbf4 in human HCT116 cells assessed as reduction of MCM2 phosphorylation after 14 hrs
Assay type: cell-based, HCT-116
VALUE TYPE: IC50 (µM)
Numbers only here, please. The scale is µM.

For NC(=O)c1sc(-c2ccnc(N)n2)nc1-c1cc(Cl)cc(Cl)c1 , write its IC50. 8.5

Give the measured IC50 for NC(=O)c1sc(-c2ccnc(N)n2)nc1-c1ccc(Cl)cc1Cl 0.501

Using known records, supply IC50 for NC(=O)c1sc(-c2ccnc(N)n2)nc1-c1ccccc1F 1.07

Report IC50 for NC(=O)c1sc(-c2ccncc2)nc1-c1ccccc1 23.6

Give a short answer stating reported IC50 for NC(=O)c1sc(-c2ccnc(N)n2)nc1-c1cc(F)ccc1F . 3.62

----------
Biological target: CDC7/DBF4 (Cell division cycle 7-related protein kinase/Activator of S phase kinase) (Homo sapiens)
Test: Inhibition of Cdc7/Dbf4 (unknown origin) using 0.667 uM of ATP as substrate by AlphaScreen assay
Type: protein-complex assay
VALUE TYPE: IC50 (nM)
The reply should contain only the number, in nM.

Tell us which IC50 value is on record for NC(=O)c1sc(-c2ccnc(N)n2)nc1-c1ccc(Cl)cc1Cl 14

----------
Molecular target: Cyclin-dependent kinase 4/cyclin D1 (Homo sapiens, UniProt P11802)
Sequence (P11802 whole entry): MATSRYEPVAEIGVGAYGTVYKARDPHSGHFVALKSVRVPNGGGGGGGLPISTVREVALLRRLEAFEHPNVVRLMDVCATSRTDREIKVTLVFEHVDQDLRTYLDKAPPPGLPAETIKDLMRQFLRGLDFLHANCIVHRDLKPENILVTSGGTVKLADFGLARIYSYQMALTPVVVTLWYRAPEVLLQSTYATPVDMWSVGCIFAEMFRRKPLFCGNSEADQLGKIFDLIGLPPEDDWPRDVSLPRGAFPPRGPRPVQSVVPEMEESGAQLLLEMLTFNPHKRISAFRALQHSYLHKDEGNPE
Sequence (P24385 whole entry, further chain): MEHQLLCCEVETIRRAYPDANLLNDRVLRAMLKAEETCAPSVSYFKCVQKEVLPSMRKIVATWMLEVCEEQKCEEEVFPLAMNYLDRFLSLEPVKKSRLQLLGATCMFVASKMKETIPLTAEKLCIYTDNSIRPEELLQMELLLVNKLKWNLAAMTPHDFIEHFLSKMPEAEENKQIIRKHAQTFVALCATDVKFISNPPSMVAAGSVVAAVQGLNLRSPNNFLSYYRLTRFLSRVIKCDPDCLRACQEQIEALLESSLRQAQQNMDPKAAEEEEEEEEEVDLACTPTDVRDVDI
Assay: Inhibition of CDK4/Cyclin-D1 (unknown origin) by homogeneous time-resolved fluorescence assay
pIC50: −log10 of the molar value.
VALUE TYPE: pIC50

Specify reported pIC50 for the compound shown: NC(=O)c1sc(-c2ccnc(N)n2)nc1-c1ccc(Cl)cc1Cl < 4.30

Return reported pIC50. Input compound: COc1ccc(-c2nc(-c3ccnc(N)n3)sc2C(N)=O)c(Cl)c1 < 4.30

----------
Test: Intrinsic clearance in rat liver microsomes at 1 uM after 30 mins by reverse phase HPLC analysis in presence of NADPH
Type: ADME
Settings: read-out: CLH
Would you mind telling me the reported microsomal CLint at 1 µM of each entry?
Write the value in µL/min/mg as a bare number.

Indicate its recorded microsomal CLint at 1 µM; the molecule in question is NC(=O)c1sc(-c2ccnc(N)n2)nc1-c1cc(Cl)cc(Cl)c1 69

# return recorded microsomal CLint at 1 µM for entry NC(=O)c1sc(-c2ccnc(N)n2)nc1-c1cc(F)ccc1F 28

For Cc1ccc(-c2nc(-c3ccnc(N)n3)sc2C(N)=O)c(Cl)c1 , write its microsomal CLint at 1 µM. 140

Specify reported microsomal CLint at 1 µM for the molecule shown: COc1ccc(-c2nc(-c3ccnc(N)n3)sc2C(N)=O)c(Cl)c1 99

Name the recorded microsomal CLint at 1 µM of the item NC(=O)c1sc(-c2ccnc(N)n2)nc1-c1ccc(Cl)cc1Cl in your answer. 22

Answer with the recorded microsomal CLint at 1 µM for the molecule listed here: CN(C)c1nc(-c2ccnc(N)n2)sc1C(N)=O 26

----------
Biological target: CDC7/DBF4 (Cell division cycle 7-related protein kinase/Activator of S phase kinase) (Homo sapiens, UniProt O00311)
Experiment: Inhibition of Cdc7/Dbf4 (unknown origin) using 1 uM of ATP as substrate by AlphaScreen assay
Assay type: protein-complex assay
VALUE TYPE: IC50 (nM)
State just the number; it will be interpreted in nM.

Please supply the value of reported IC50 for the item NC(=O)c1sc(-c2ccnc(N)n2)nc1-c1ccc(Cl)cc1Cl 10

----------
Assay: Apparent permeability of the compound in pig LLC-PK1 cells
Type: ADME, cell-based, Sus scrofa
VALUE TYPE: Papp

Quick one: give measured Papp for CCOC(=O)c1sc(-c2ccncc2)nc1O ≥ 8.9 ×10⁻⁶ cm/s

----------
Assay: Mean residence time in Sprague-Dawley rat at 2 mg/kg, iv
Format: ADME, organism-based
Parameters: dose 2 mg/kg, route intravenous
Conditions: in vivo
VALUE TYPE: MRT

Determine from records and report MRT for NC(=O)c1sc(-c2ccnc(N)n2)nc1-c1ccc(Cl)cc1Cl 1.15 h

----------
Hi there, I'd appreciate the recorded IC50 for every entry that follows.
Target: Cyclin-dependent kinase 2/cyclin E1 (Homo sapiens)
Experiment: Inhibition of CDK2/Cyclin-E (unknown origin) using maltose binding protein as substrate by HTRF assay
Assay type: protein-complex assay

Kindly indicate its recorded IC50. Item: CCOC(=O)c1sc(-c2ccncc2)nc1N > 125 µM

Give reported IC50 value for CCOC(=O)c1sc(-c2cccnc2)nc1O > 125 µM

Look up IC50 of NC(=O)c1sc(-c2ccncc2)nc1-c1ccccc1 and report it. 34.2 µM

Quote IC50 reported for CCOC(=O)c1sc(-c2ccc(OC)cc2)nc1O please. > 125 µM

Note down IC50 recorded for O=C1Nc2ccccc2Nc2nc(-c3ccncc3)sc21 1.2 µM

Supply measured IC50 of NC(=O)c1sc(-c2ccncc2)nc1-c1ccc(Cl)cc1Cl in your reply. 0.7 µM

Answer with the recorded IC50 for the molecule listed here: CCOC(=O)c1sc(-c2ccncc2)nc1-c1cccnc1 > 125 µM

State its IC50: CCOC(=O)c1sc(-c2ccncc2)nc1OC > 125 µM

Let me know recorded IC50 for CCOC(=O)c1sc(-c2cc(N)ncn2)nc1-c1ccccc1 , thanks. > 125 µM

Identify measured IC50 corresponding to Cc1ccc(-c2nc(-c3ccnc(N)n3)sc2C(N)=O)c(Cl)c1 7.03 µM

// Input: CN(C)c1nc(-c2ccnc(N)n2)sc1C(N)=O . Output its IC50 only. 18.2 µM

Retrieve IC50 measured for CCOC(=O)c1sc(-c2ccncc2)nc1-c1ccccc1 and print it. > 125 µM

----------
Biological target: CDC7/DBF4 (Cell division cycle 7-related protein kinase/Activator of S phase kinase) (Homo sapiens)
Assay: Inhibition of Cdc7/Dbf4 in human HCT116 cells assessed as reduction of MCM2 phosphorylation after 14 hrs
Format: cell-based, HCT-116
VALUE TYPE: IC50 (µM)
Give the value, in units of µM, as a plain number.

Dear colleague, please send me the reported IC50 for COc1nc(-c2ccncc2)sc1C(N)=O when you can. 9.93

Give reported IC50 value for NC(=O)c1sc(-c2ccnc(N)n2)nc1-c1ccccc1C(F)(F)F 2.04

Indicate the recorded IC50 value for this compound: NC(=O)c1sc(-c2ccncc2)nc1-c1ccc(Cl)cc1Cl 11.5

Dear colleague, please send me the reported IC50 for CN(C)c1nc(-c2ccnc(N)n2)sc1C(N)=O when you can. 1.87

Provide only the value of recorded IC50 for Cc1ccc(-c2nc(-c3ccnc(N)n3)sc2C(N)=O)c(Cl)c1 1.4

Give IC50 for COc1ccc(-c2nc(-c3ccnc(N)n3)sc2C(N)=O)c(Cl)c1 0.862
